Tested on: NCI/ADR-RES
Experiment: NCI tumour cell line growth inhibition, 48 h
Active and inactive are the calls of the source. No stated cut-off is given here; in the data, active = GI50 up to about 1.1 µM and inactive = higher.
Give your call using only these classes: active, inactive

> print(dat)
                                   molecule  class.label
1  CCOP(=O)(OCC)C(Cc1ccc(OC)c(OC)c1)N=C(c1ccccc1)c1ccccc1 (stereo not given)     inactive

Could you please tell me the result logged for O=C(Nc1cccc(C(F)(F)F)c1)O/N=C(/Cl)CCl in this assay?
inactive

Repeat for the following molecule: O=C1CCCC2(c3ccccc3)Nc3ccccc3N12 (stereo not given)
inactive

* * *

System: UACC-257
Test: NCI tumour cell line growth inhibition, 48 h
The source made the active and inactive calls. No stated cut-off is given here; in the data, active = GI50 up to about 1.1 µM and inactive = higher.
Each record here notes measured GI50.

COMPOUND	GI50
CCN1CCC(O)(c2ccc(Cl)cc2)C(C(=O)c2ccc(Cl)cc2)C1 (centres undefined)	> 100 µM (inactive)
O=C1C(NCCc2ccc(O)c(O)c2)=CC(=O)c2ncccc21	5.36 µM (inactive)
COP(=O)(OC)/C(=N\Nc1ccc([N+](=O)[O-])cc1)NCc1ccccc1	21.8 µM (inactive)
Cc1ccc(OCC2OC(n3cnc4c(Cl)nc(Nc5cc(Cl)cc(Cl)c5)nc43)CC2Oc2ccc(C)cc2)cc1 (centres undefined)	> 100 µM (inactive)
CCOc1cc(C2CC(c3ccc(NS(=O)(=O)c4cc([N+](=O)[O-])ccc4C)cc3)=NN2c2ccc([N+](=O)[O-])cc2[N+](=O)[O-])ccc1O (centres undefined)	19.1 µM (inactive)
COc1ccc(C2N3CCCCC3[C@@H]3c4[nH]c5ccccc5c4CCN23)c(OC)c1 (some centres undefined)	26.2 µM (inactive)
Cc1nn2c(=O)c([N+](=O)[O-])c(/C=C/c3ccco3)nc2s1	87.5 µM (inactive)
O=C(N/N=C/c1ccccc1O)c1cccc([N+](=O)[O-])c1	9.48 µM (inactive)

Turning now to a further record.
Give its GI50 value. Item: CCN(CC)S(=O)(=O)c1ccc2[nH]c(NC(=O)OC)nc2c1
8.02 µM (inactive)

* * *

System: RXF 393
Assay: NCI tumour cell line growth inhibition, 48 h
Calls of active or inactive are those of the source. No stated cut-off is given here; in the data, active = GI50 up to about 1.1 µM and inactive = higher.
Each record here notes measured GI50.

Solved entries (count: 3):
> print(dat)
                                   compound  recorded.metric               result
1  COc1c2cc([N+](=O)[O-])cc1CNC(=O)CN1CCOCCOCCN(CCOCCOCC1)CC(=O)NC2             GI50  > 100 µM (inactive)
2  O=C(N/C(=C\c1cccc([N+](=O)[O-])c1)c1nc2cc([N+](=O)[O-])ccc2[nH]1)c1ccccc1             GI50   12.8 µM (inactive)
3  COC1=CC2C(c3cc4ccccc4n3S(=O)(=O)c3ccccc3)CC1CN2C(=O)OCc1ccccc1 (centres undefined)             GI50   14.4 µM (inactive)

Give its GI50 value. Item: C=CCc1cc(-c2n[nH]c(=S)[nH]2)ccc1N/N=N/c1ccc(C(=O)O)cc1
89.5 µM (inactive)

* * *

Test system: OVCAR-5
Assay: NCI tumour cell line growth inhibition, 48 h
The source made the active and inactive calls. Rule as the data show it: active = GI50 up to about 1.1 µM and inactive = higher.
RECORDED METRIC: GI50

> print(dat)
                                   compound  recorded.metric               result
1  Cc1ccc2[nH]c3c(c2c1)C1CCC(C(C)(C)C)CC1C1C(=O)N(c2ccc4c(c2)OCO4)C(=O)C31 (stereo not given)             GI50   3.61 µM (inactive)
2  CC1=C(C)C(=O)OC(C(C)(O)C2(O)CC3OC34C3CC(O)C56OC5C=CC(=O)C6(C)C3CCC42C)C1 (stereo not given)             GI50   2.39 µM (inactive)
3           O=[N+]([O-])/C=C/c1ccc(Cl)cc1Cl             GI50   17.8 µM (inactive)
4  O=c1[nH]c(=S)c2cc3c(=S)[nH]c(=O)n(CCC(c4ccccc4)(c4ccccc4)c4ccccc4)c3nc2n1CCC(c1ccccc1)(c1ccccc1)c1ccccc1             GI50  > 100 µM (inactive)
5            NC(=S)NS(=O)(=O)c1ccc(Cl)cc1Cl             GI50  > 100 µM (inactive)
6  FC(F)(F)c1ccc(/N=C/C=C(/Nc2ccc(C(F)(F)F)cc2)c2ccc(Cl)cc2)cc1             GI50   17.9 µM (inactive)
7  CC1(C)OC([C@H](O)CO)C([C@H]2NCCS2)O1 (stereo not given in full)             GI50  > 100 µM (inactive)
8  CC(=O)Oc1ccc(C2SCc3nc4ccccc4n32)cc1 (stereo not given)             GI50   69.5 µM (inactive)

Give its GI50 value. Item: Cc1ccc(Oc2ccc([N+](=O)[O-])cc2[N+](=O)[O-])c(C)c1
82.8 µM (inactive)

Repeat for the following compound: COc1cc2c(c(OC)c1OC)-c1ccc(SC)c(=O)cc1C(CC(=O)Oc1cccc(F)c1)C2 (stereo not given)
4.55 µM (inactive)

* * *

Test system: NCI-H522
Assay: NCI tumour cell line growth inhibition, 48 h
Active and inactive are the calls of the source. Cut-off read from the data, not from the text of the source: active = GI50 up to about 1.1 µM and inactive = higher.
Give your call using only these classes: Yes = active, No = inactive

Solved cases below.
COMPOUND	CLASS LABEL
COc1cc2c3c(c1Oc1nnnn1-c1ccccc1)-c1c(ccc4c1OCO4)C[C@H]3N(C)CC2	No
CCCCCNC(=O)c1c(O)[nH]c(=S)[nH]c1=O	No
Cc1cc(O)c(C(C)C)cc1CN1CCCCC1	No

Could you please tell me the result logged for CC[C@@H]1/C=C/C=C/C[C@H](C)[C@@H](O)[C@@H](C)C(=O)[C@H](C)[C@@H](O)[C@H](C)C(=O)[C@H](C)[C@@H](O)[C@H](C)/C=C/C(=O)O[C@H]2[C@@H](C)[C@@H](CC1)O[C@@]1(CC[C@@H](C)[C@@H](CC(C)O)O1)[C@@H]2C (some centres not stated) in this assay?
Yes

Repeat for the following compound: COc1ccc(/C=C2\C[C@H]3[C@@H]4CCC5=C[C@@H](N6CCCC6)CC[C@]5(C)[C@H]4CC[C@]3(C)[C@H]2O)cc1
No

Repeat for the following compound: O=C(Nc1ccc(Nc2ccc3c(c2)C(=O)c2ccccc2C3=O)c2c1C(=O)c1ccccc1C2=O)c1ccccc1
No

Repeat for the following compound: O=[N+]([O-])/C=C/c1ccc(Cl)cc1Cl
No

* * *

Tested on: MOLT-4
Assay: NCI tumour cell line growth inhibition, 48 h
The source made the active and inactive calls. No stated cut-off is given here; in the data, active = GI50 up to about 1.1 µM and inactive = higher.
RECORDED METRIC: GI50

Solved entries (count: 5):
COMPOUND	GI50
CCCCCCCCCCCCCCCCCc1nnc(N)o1	> 100 µM (inactive)
CC[C@H](C)C(=O)O[C@H]1C[C@@H](C)C=C2C=C[C@H](C)[C@H](CC[C@@H]3C[C@@H](O)CC(=O)O3)[C@H]21	26.8 µM (inactive)
CC1CC(C)C2OC2(C)C[C@H](C)C(=O)NC(C)C(=O)N(C)[C@H](Cc2c(Br)[nH]c3ccccc23)C(=O)N[C@@H](c2ccc(O)cc2)CC(=O)O1 (some centres undefined)	1.34 µM (inactive)
O=[N+]([O-])/C=C/c1ccc(Cl)cc1Cl	15.8 µM (inactive)
CC(C)Oc1cc2c(cc1O)CC[C@@H]1[C@@H]2CC[C@]2(C)[C@@H](O)CC[C@@H]12	4.74 µM (inactive)

Turning now to a further record.
Give its GI50 value. Item: O=C(CSc1nnc(-c2ccc(/N=C\c3ccc(Cl)cc3)cc2)o1)Nc1ccccc1
39.6 µM (inactive)

* * *

Test system: NCI/ADR-RES
Assay: NCI tumour cell line growth inhibition, 48 h
Calls of active or inactive are those of the source. No stated cut-off is given here; in the data, active = GI50 up to about 1.1 µM and inactive = higher.
Give your call using only these classes: active, inactive

Solved cases below.
> print(dat)
                                   compound  target.of.assay  class.label
1                 CC1=Nc2c(C#N)ncn2N=C(C)C1      NCI/ADR-RES     inactive
2  C=CCOC(=O)N1c2ccc(O[Si](C)(C)C(C)(C)C)cc2[C@@]23O[C@@]24[C@@H]1C#C/C=C\C#C[C@]3(O)C(OC)(OC)C[C@@H]4C      NCI/ADR-RES     inactive
3  CC(C)CCC[C@@H](C)[C@H]1CC[C@H]2[C@@H]3CC[C@H]4C[C@H](N)CC[C@]4(C)[C@H]3CC[C@]12C      NCI/ADR-RES     inactive
4  Cc1nn2c(=O)c([N+](=O)[O-])c(/C=C/c3ccco3)nc2s1      NCI/ADR-RES     inactive
5        c1ccc2sc(C3(N4CCCCCC4)CCCCC3)cc2c1      NCI/ADR-RES     inactive

Could you please tell me the result logged for Cn1c(=O)c2ccccc2[n+]2c(-c3cccc([N+](=O)[O-])c3)csc12 in this assay?
inactive

Repeat for the following compound: COc1ccc(-c2c3c(n(C4OC(COC(C)=O)C(OC(C)=O)C(OC(C)=O)C4OC(C)=O)c(=S)c2C#N)CCC3)cc1 (configuration not stated)
inactive
